tested on: XIP peptide (Xip251-270); test: small-molecule binders of XIP peptide, primary screen, biochemical, small-molecule microarray, fluorescence 635/667 nm, 0.5 µg/mL protein (AID 1183); conditions: small-molecule microarray binding, fluorescence 635 nm; higher = more signal
Respond with Condition met for composite z-score values of 0.6 and above, Condition not met for values below.

Check out these entries, answers already filled in.
• O=C1O[C@@H](c2ccccc2)[C@@H](c2ccccc2)N2[C@@H](c3ccc(O)cc3)[C@]3(C(=O)Nc4ccccc43)[C@@H](C(=O)N3CCN(c4ncccn4)CC3)[C@H]12 = Condition not met
• CC(C)=C1C(=O)C(c2ccccc2)=C2CN3C(=O)N(CCc4ccccc4)C(=O)[C@]3(Cc3ccccc3)[C@H]21 = Condition not met
• O=C(CS)NCCCCCCNC(=O)[C@@H]1C[C@@H]2C(=O)N[C@@H](Cc3ccccc3)C(=O)N2[C@@H]1c1ccc(O)cc1 = Condition met
• CO[C@H]1COC(=O)[C@H](C)NC(=O)CC=C[C@@H](C)[C@H](NS(=O)(=O)c2ccc(C)cc2)COC(=O)CC=C[C@@H]1C = Condition not met
• COc1ccc(NN2C(C(O)c3cc(OC)c(OC)c(OC)c3)C=CC3C(=O)N(C4CCCCC4)C(=O)C32)cc1 (stereo not given) = Condition met
• CCc1cccc(NC(=O)O[C@H]2[C@H](OC(=O)Nc3ccccc3)[C@@H](OC(=O)Nc3ccccc3)[C@@H](OC)O[C@@H]2CO)c1 = Condition met
• CCCC=C(CCC)[C@@H](NC(=O)c1ccccc1)c1ccccc1 = Condition not met
• O=C1NC(=O)C2C1C=CC(C(O)C=Cc1ccc([N+](=O)[O-])cc1)N2Nc1ccccn1 (stereo not given) = Condition met
• CCCC=C(CCC)[C@@H](NS(=O)(=O)c1ccc(-c2ccccc2)cc1)c1ccc(C(=O)OC)cc1 = Condition not met
• COC(=O)C(CC#Cc1ccc2c(c1)[C@]1(C(=O)N2)[C@H](C(=O)N2CCCCCCC2)[C@H]2C(=O)O[C@H](c3ccccc3)[C@H](c3ccccc3)N2[C@@H]1c1ccc(O)cc1)C(=O)OC = Condition not met

Check the entry `C/C(=N\O)C(=O)NCCCCCNC(=O)OCc1ccccc1` : does composite z-score equal or exceed 0.6?
Condition not met

Check the entry `COc1ccc([Si](C)(C)[C@H]2[C@H](CC(=O)N(CCO)Cc3ccccc3)O[C@@]3(C(=O)N(C)c4ccccc43)[C@@H]2C)cc1` : does composite z-score equal or exceed 0.6?
Condition not met

Check the entry C=CCC(OC(C)=O)[C@@H]1[C@@H](N(Cc2ccc(-c3ccccc3)cc2)C(=O)c2ccc(-c3ccccc3)cc2)c2cc(OCCCO)ccc2N1C(=O)Cc1ccc(OC)cc1 (stereo not given in full) : does composite z-score equal or exceed 0.6?
Condition not met

Check the entry `CC(C)(C)OC(=O)CC[C@]1(C(=O)N2CCCCC2)N=C(c2ccc(OCCCO)cc2)O[C@H]1c1ccccc1` : does composite z-score equal or exceed 0.6?
Condition met

Check the entry `CO[C@@H]1COC(=O)[C@H](C)NC(=O)CC=C[C@@H](C)[C@H](NS(=O)(=O)c2ccc(C)cc2)COC(=O)CC=C[C@@H]1C` : does composite z-score equal or exceed 0.6?
Condition not met
